The measurements presented in this section are drawn from paper PMC5039624.

- MEASURED_TARGET: T1, isolated voltage-sensor domain of the voltage-gated potassium channel KvAP (VSDK), wild type (UniProt Q9YDF8 19-160)
- T1 construct: also called WT VSDK; KvAP voltage sensor
- T1 sequence: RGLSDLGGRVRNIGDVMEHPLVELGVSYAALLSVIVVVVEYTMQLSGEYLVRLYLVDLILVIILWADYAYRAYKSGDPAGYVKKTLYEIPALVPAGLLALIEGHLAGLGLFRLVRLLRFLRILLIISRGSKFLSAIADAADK
- RUN_DESCRIPTION: NMR titration
- EXPERIMENTAL_PARAMETERS: both partners purified
OBSERVABLE: pKd
Would you please state pKd, meaning minus log10 of the concentration in mol/L, as a bare number?

QUERY: Identify measured pKd associated with SECGKFMWKCKNSNDCCKDLVCSSRWKWCVLASPF (also called WT VSTx1; spider-venom peptide VSTx1; not shown: His6, N-terminal, cleaved; MBP, N-terminal, cleaved) [VSTx1 (recombinant, wild type)]
RESULT: 3.85
